- Target System: human Mac-1 (integrin αMβ2, CD11b/CD18) (human, UniProt P11215 17-1152; P05107 23-769)
- Assay Method Text: flow cytometry, HEK293/Mac-1 cells, PBS (Mock), 10 µg/ml of this antibody; binding of reporter mAb m24 read
- Method: The HEK293/Mac-1 cells (clone1-4) were counted and washed twice with staining buffer (PBS containing 1% FBS, and 0.1% sodium azide). […] After washing with the staining buffer, the cells were analyzed by flow cytometry. […] After washing with the staining buffer, the cells were analyzed by flow cytometry. TABLE III The anti-Mac-1 antibodies can serve as agonist to enhance the conformational change of Mac-1. […] Binding of KIM127 or m24 was detected using flow cytometry.
Each entry below lists one item and its recorded m24 (Expression relative to IgG4) value.

Example cases with answers are listed next.
anti-Mac-1 antibody clone 24F09 (antibody, human IgG4, V domains shown, also called 24F9) VH: EVQLVESGGGLVQPGGSLRLSCAASGFTFSSAWMSWVRQAPGKGLEWVSTIYWSGSEINYADSVKGRFTISRDNSKNTLYLQMNSLRAEDTAVYYCARSFASGESAMDVWGQGTLVTVSS VL: DIQMTQSPSSLSASVGDRVTITCRASQSISNYLAWYQQKPGKAPKLLIYDASNLQSGVPSRFSGSGSGTDFTLTISSLQPEDFATYYCQQYYSSPPTFGQGTKVEIK :: 19.1 relative to IgG4
anti-Mac-1 antibody clone 24F08 (antibody, human IgG4, V domains shown) VH: EVQLVESGGGLVQPGGSLRLSCAASGFTFSSYWMSWVRQAPGKGLEWVSIINYSGREADYADSVKGRFTISRDNSKNTLYLQMNSLRAEDTAVYYCARDGSYVGQAHEAFDIWGQGTLVTVSS VL: DIQMTQSPSSLSASVGDRVTITCRASQSISKYLAWYQQKPGKAPKLLIYGTSNLQSGVPSRFSGSGSGTDFTLTISSLQPEDFATYYCQQSRSWPLTFGQGTKVEIK :: 21.2 relative to IgG4

Proceeding to the next binder to report its m24 (Expression relative to IgG4).
input: For the binder anti-Mac-1 antibody clone 24G09 (antibody, human IgG4, V domains shown) VH: EVQLVESGGGLVQPGGSLRLSCAASGFTFSDYAIGWVRQAPGKGLEWVSTIYWSGSNAYYADSVKGRFTISRDNSKNTLYLQMNSLRAEDTAVYYCARLFTLGYHGFDVWGQGTLVTVSS VL: DIQMTQSPSSLSASVGDRVTITCRASQSINTYLNWYQQKPGKAPKLLIYDASNLQSGVPSRFSGSGSGTDFTLTISSLQPEDFATYYCQQYDDLPFTFGQGTKVEIK , give its measured m24 (Expression relative to IgG4) value.
output: 0.72 relative to IgG4

Entry source: patent US20240084017A1
